Form field: protein stability index (one value per entry).
Assay: protein stability index of a GFP-peptide fusion (GPS, HEK-293T) (PSI 1-6); higher = more stable;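 also: 24-mer peptide tiles fused after GFP, lentivirally expressed, FACS-sorted into six equal bins by GFP/DsRed ratio, decoded by Illumina sequencing, PSI is the read-weighted mean bin number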
Settings: treatment: DMSO; c terminus: a fixed tail appended
experimental_readout: protein stability index

- sequence_content: "DVEVPASVTGYSFASDGDSGTCSP [ADD1]"
  data_value: 5.16
- sequence_content: "LGHAAAFSDDCDLPSAQDINRLVG [GLT8D2]"
  data_value: 4.23
- sequence_content: "SFVESANSEVYLPNINKISMQAVL [RHOBTB1]"
  data_value: 2.43
- sequence_content: "KDAYVQKLVKVCNGHDCWSLISLS [TENT5D]"
  data_value: 2.43
- sequence_content: "DAGGIPRTAQSEETRVWHRRDGKW [CAMK2A]"
  data_value: 4.92
- sequence_content: "LQLEACGMRRKSLLTRKVICKSDA [GOLPH3]"
  data_value: 2.95
- sequence_content: "LTSADRETAEEVSARIVQVVTAEA [MAP2]"
  data_value: 4.86
- sequence_content: "FVEKNPTIVNFPITNVDLREYLSE [USP39]"
  data_value: 2.73
- sequence_content: "GAFLRTCLLSSNSRSLLTGGYNLA [TLE6]"
  data_value: 2.72
- sequence_content: "ICCWSFYGQGRKIAEVCCTSIVYA [KCTD10]"
  data_value: 2.98
- sequence_content: "DDYPSRGYSDRDGYGRDRDYSDHP [RBMX]"
  data_value: 4.85
- sequence_content: "RDPQAVKERALSAPWLSLFPPEGN [ZNF263]"
  data_value: 3.06
- sequence_content: "ARIYIRRTLRNFINDEMQAKGIPQ [PCMTD1]"
  data_value: 2.01
- sequence_content: "ESLEDVAMYISQEEWGHQDPSKRA [ZNF263]"
  data_value: 4.99
- sequence_content: "SAWKTVACGGTRDQLFMQEKARQL [MYBL2]"
  data_value: 3.21
- sequence_content: "GEPLEKVASVGNSRPTGQQLESLG [KISS1]"
  data_value: 5.04
- sequence_content: "QEPPTTDSQEAQSPGHSSAGQEGE [TOR1AIP2]"
  data_value: 5.67
- sequence_content: "CEKYLPGYYSEKLEAIQLDGEILF [TBC1D10A]"
  data_value: 2.14
- sequence_content: "PVHLIDKLPLPVTIKSHLKSFSMA [RAB40C]"
  data_value: 2.3
- sequence_content: "CVTLMQGHEGSVSSCHFARDSSFL [WDR88]"
  data_value: 2.28
- sequence_content: "FRRFAVHGDARATGREMHGKNWSK [TPPP]"
  data_value: 3.62
- sequence_content: "DSAQFTKALAIILHLLYLLEKVEC [FEM1A]"
  data_value: 2.22
- sequence_content: "ACDIRVAASSAKMGLVETKLAIIP [AUH]"
  data_value: 2.95
- sequence_content: "NSQESRSDLEDMEEEEGTRSPTLE [SMG5]"
  data_value: 5.56
- sequence_content: "EGSREHAFQITGVWDASRAPRGTP [PLEKHN1]"
  data_value: 4.34
- sequence_content: "FRLLNLKNDSLRKRYDGLKYDVKK [TSN]"
  data_value: 2.85
- sequence_content: "LRIPEGPIDQGPAIGRVRVLEEQL [FUT8]"
  data_value: 3.69
- sequence_content: "HFSLRVQSRANGVKYPELVLEHSL [PCDHGA10]"
  data_value: 2.35
- sequence_content: "SLLNFLPEGVNKLKISPVTLKEAY [TENT5C]"
  data_value: 2.27
